System Name: SARS-CoV-2 spike protein receptor binding domain (RBD2) (SARS-CoV-2, UniProt P0DTC2 319-537)
Experimental Protocol: SPR sandwich binning, ligand S01
Can you tell me normalized analyte binding to RBD2 held by the immobilized ligand for the items I'm about to list?
Note: the reply should be a number with no unit written.

normalized analyte binding to RBD2 held by the immobilized ligand reading for H05 IgG1 (antibody, V domains shown, also called H5; HO5) VH: QVQLVQSGAEVKKPGSSVKVSCKASGGTFSSYAISWVRQAPGQGLEWMGGIIPIFGTANYAQKFQGRVTITADESTSTAYMELSSLRSEDTAVYYCARSIFGVVIISHADGYYYGMDVWGQGTTVTVSS VL: SYVLTQPPSVSVAPGQTARITCGANNIGRISVHWYQQKPGQAPVLVVYDDSDRPSGIPERFSGSNFGNTATLTISRVEAGDEADYYCQVWDSYSDHVIFGGGTKLTVL : 1.73

Lab note: F07 IgG1 (antibody, V domains shown) VH: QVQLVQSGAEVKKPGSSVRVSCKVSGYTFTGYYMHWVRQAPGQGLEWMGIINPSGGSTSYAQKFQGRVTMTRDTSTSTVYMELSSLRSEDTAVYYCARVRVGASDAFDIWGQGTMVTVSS VL: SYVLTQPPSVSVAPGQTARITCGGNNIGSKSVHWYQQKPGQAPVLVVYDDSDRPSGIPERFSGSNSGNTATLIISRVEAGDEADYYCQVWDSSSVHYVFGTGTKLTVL gave normalized analyte binding to RBD2 held by the immobilized ligand of 1.28

Lab book: normalized analyte binding to RBD2 held by the immobilized ligand of E08 IgG1 (antibody, V domains shown) VH: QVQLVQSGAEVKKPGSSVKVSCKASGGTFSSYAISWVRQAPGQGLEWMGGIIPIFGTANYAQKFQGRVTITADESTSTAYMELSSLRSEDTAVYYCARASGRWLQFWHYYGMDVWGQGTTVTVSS VL: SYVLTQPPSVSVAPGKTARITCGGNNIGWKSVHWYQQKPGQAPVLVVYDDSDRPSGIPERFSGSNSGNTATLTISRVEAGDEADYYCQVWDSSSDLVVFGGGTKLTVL noted as 1.85
